Target: PI3Kγ (Homo sapiens)
Construct: host or cells: THP-1
Sequence (P48736 whole entry): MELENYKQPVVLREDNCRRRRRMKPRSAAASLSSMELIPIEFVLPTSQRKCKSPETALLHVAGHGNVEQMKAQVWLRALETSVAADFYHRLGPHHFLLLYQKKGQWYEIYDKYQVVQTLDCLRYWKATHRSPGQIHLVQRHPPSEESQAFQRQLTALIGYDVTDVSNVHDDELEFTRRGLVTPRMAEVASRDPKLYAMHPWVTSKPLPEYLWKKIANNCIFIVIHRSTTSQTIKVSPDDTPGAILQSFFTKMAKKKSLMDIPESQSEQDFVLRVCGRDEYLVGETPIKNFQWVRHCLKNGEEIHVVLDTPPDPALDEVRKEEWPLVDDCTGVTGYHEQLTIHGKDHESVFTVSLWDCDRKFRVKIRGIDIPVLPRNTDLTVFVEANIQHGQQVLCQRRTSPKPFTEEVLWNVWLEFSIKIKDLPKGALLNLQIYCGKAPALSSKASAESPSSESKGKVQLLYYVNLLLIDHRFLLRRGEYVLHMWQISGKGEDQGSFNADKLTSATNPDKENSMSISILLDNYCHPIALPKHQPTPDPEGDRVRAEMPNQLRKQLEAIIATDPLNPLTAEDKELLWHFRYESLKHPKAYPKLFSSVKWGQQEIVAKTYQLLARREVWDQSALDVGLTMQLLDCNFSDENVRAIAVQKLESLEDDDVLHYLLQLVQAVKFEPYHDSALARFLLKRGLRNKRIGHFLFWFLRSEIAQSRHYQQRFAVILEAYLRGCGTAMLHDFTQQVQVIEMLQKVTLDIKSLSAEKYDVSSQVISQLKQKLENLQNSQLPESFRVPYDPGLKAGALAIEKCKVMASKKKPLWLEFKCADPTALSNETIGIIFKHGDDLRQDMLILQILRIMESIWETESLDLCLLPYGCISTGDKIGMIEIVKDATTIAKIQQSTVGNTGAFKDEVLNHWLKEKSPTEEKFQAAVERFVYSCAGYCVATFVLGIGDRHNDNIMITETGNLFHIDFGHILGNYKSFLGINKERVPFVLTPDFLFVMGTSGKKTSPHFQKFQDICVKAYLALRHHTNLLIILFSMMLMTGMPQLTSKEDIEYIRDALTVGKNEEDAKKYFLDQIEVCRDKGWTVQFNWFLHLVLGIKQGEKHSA
Assay: PI3Kγ cellular assay in THP-1 cells (AKT pS473 AlphaLISA)
Assay type: cell-based
Conditions: Table 7, rhMCP-1 stimulated AKT pS473, read-out: cellular potency (PI3Kγ IC50)
attribute measured: IC50

{"smiles structure": "C[C@@H](C1CC1)N1Cc2cc(-c3ccn4nc(N)c(C(=O)N[C@@H](CO)C5CC5)c4n3)cnc2C1=O", "IC50": "> 1 µM"}

Let us move to another entry and its IC50.
Query (compound): C[C@@H](C1CC1)N1Cc2cc(-c3ccn4nc(N)c(C(=O)NC5CC5)c4n3)cnc2C1=O ; field requested: IC50
0.1 to 1 µM
